RUN DESCRIPTION: self-splicing fitness, log relative to wild type (ln ratio); higher = more splicing; Tetrahymena group I intron in knt gene, E. coli kanamycin selection, DiMSum; sequences stand for … in CUCUCU…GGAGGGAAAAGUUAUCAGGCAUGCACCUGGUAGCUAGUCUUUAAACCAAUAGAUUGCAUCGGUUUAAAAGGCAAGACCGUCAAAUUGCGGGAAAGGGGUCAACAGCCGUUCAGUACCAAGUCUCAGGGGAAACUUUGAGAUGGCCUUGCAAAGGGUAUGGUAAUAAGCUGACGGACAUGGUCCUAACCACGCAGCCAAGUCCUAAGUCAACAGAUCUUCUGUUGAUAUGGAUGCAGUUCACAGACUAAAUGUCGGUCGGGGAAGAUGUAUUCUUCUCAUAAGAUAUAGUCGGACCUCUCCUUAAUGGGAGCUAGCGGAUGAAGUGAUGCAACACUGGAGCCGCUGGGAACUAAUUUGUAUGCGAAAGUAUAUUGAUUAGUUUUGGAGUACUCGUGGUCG;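 also: selection with 25 µg/mL kanamycin versus none on LB agar overnight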
CONDITION INFO: 37 °C
Tag: rule met if measured self-splicing fitness (ln) is not below -2, rule not met if it is.

Worked examples follow.
BIOPOLYMER SEQUENCE	GROUP
GCUUAGCAAUAUUACGAGCU	rule met
CAUCAGCAAUAUUACGGGAG	rule met
CCGCAGCAAUAUUACGAAGC	rule not met
GCUUAGCAAUAUUACGCUUC	rule met
UGGCAGCAAUAUUACGCGCC	rule not met
AUAUAGCAAUAUUACGAACG	rule met
CGAUAGCAAUAUUACGGGUC	rule not met
CCAAAGCAAUAUUACGAAUC	rule not met

Has CGUUAGCAAUAUUACGCACA a recorded self-splicing fitness (ln) greater than or equal to -2? rule met

Has UCGCAGCAAUAUUACGAGAA a recorded self-splicing fitness (ln) greater than or equal to -2? rule met

Has GAACAGCAAUAUUACGCCAA a recorded self-splicing fitness (ln) greater than or equal to -2? rule not met

Has ACCCAGCAAUAUUACGUGUA a recorded self-splicing fitness (ln) greater than or equal to -2? rule met

Has CCCGAGCAAUAUUACGAACG a recorded self-splicing fitness (ln) greater than or equal to -2? rule met

Has GGGAAGCAAUAUUACGCGAC a recorded self-splicing fitness (ln) greater than or equal to -2? rule met

Has UUUCAGCAAUAUUACGUGCG a recorded self-splicing fitness (ln) greater than or equal to -2? rule met

Has UGCAAGCAAUAUUACGAUCC a recorded self-splicing fitness (ln) greater than or equal to -2? rule met
